- testedSystem: canine TRPM8 (Canis lupus familiaris, UniProt Q1A7N1)
- Construct: expressed in transfected cells
- Sequence (Q1A7N1 1-1104): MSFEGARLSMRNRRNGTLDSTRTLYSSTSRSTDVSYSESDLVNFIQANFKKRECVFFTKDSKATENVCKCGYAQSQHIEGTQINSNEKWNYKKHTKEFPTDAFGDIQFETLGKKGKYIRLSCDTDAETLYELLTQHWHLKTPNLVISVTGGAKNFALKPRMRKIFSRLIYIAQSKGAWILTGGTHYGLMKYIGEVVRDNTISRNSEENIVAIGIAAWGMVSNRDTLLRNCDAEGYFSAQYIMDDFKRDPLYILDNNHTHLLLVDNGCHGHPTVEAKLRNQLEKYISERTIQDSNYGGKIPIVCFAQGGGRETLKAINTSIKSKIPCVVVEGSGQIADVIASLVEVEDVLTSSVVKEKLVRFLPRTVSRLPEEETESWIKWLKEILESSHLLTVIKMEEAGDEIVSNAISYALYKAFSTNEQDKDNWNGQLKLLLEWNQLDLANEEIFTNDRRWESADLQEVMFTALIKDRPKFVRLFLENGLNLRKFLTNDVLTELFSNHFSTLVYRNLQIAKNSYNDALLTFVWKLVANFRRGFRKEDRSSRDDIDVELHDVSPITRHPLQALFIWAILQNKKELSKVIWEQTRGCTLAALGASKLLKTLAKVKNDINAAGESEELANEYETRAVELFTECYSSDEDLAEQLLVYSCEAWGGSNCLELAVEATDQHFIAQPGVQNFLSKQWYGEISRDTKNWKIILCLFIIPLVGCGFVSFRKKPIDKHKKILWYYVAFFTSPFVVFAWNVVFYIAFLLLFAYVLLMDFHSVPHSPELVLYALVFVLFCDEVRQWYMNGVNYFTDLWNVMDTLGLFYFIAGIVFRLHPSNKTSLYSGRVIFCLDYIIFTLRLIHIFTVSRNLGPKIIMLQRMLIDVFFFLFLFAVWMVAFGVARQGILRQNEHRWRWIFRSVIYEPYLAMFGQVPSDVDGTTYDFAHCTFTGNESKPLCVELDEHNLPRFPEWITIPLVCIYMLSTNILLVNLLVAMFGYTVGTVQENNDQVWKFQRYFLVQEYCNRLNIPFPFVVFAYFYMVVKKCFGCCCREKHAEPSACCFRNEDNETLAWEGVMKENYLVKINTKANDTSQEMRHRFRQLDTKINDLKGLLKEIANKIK
- method: In vitro canine TRPM8 functional assay (Ca2+-sensitive fluorescent dye, FLIPR or FDSS, icilin challenge)
- Type: cell-based
- conditionInfo: 0.2 μM compound; HEK293 cells stably expressing canine TRPM8; icilin challenge
quantity: inhibition at 0.2 µM (%)

CCOC(=O)C1CCN(CCS(=O)(=O)N(CCCCC(F)(F)F)c2sc3ccccc3c2C)CC1: 77
Cc1c(N(CCC2CC2)S(=O)(=O)CCN(C)Cc2ccccc2)sc2ccccc12: 89
O=S(=O)(CCN1CCOCC1)N(Cc1ccc(OC(F)(F)F)cc1)c1ccc2ccccc2c1: 87
Cc1c(N(Cc2ccc(F)cc2)S(=O)(=O)CCN(C)Cc2ccccc2)sc2ccccc12: 97
Cc1c(N(Cc2ccc(OC(F)(F)F)cc2)S(=O)(=O)CCN2CCC(C)CC2)sc2ccccc12: 99
CCCN(CCC)CCS(=O)(=O)N(Cc1ccc(OC(F)(F)F)cc1)c1cc2ccccc2s1: 78
Cc1c(N(Cc2ccc(OC(F)(F)F)cc2)S(=O)(=O)CCN2CCC(O)C2)sc2ccccc12 (centres unmarked): 99
Cc1c(N(Cc2ccc(F)c(F)c2)S(=O)(=O)CCN(C)Cc2ccccc2)sc2ccccc12: 101

###

- testedSystem: canine TRPM8 (Canis lupus familiaris)
- Construct: expressed in transfected cells
- method: In vitro canine TRPM8 functional assay (Ca2+-sensitive fluorescent dye, FLIPR or FDSS, icilin challenge)
- Type: cell-based
- conditionInfo: HEK293 cells stably expressing canine TRPM8; icilin at approx. 80% maximal response; eight-point dose-response; single determinations unless otherwise noted; read-out: IC50
quantity: IC50 (nM)

Cc1c(N(Cc2ccc(OC(F)(F)F)cc2)S(=O)(=O)CCN(C)C(C)C)sc2ccccc12: 50
O=S(=O)(CCN1CCSCC1)N(Cc1ccc(OC(F)(F)F)cc1)c1sc2ccccc2c1Br: 29
CC(=O)N1CCN(CCS(=O)(=O)N(Cc2ccc(OC(F)(F)F)cc2)c2sc3ccccc3c2Br)CC1: 41

###

- testedSystem: canine TRPM8 (Canis lupus familiaris, UniProt Q1A7N1)
- Construct: expressed in transfected cells
- method: In vitro canine TRPM8 functional assay (Ca2+-sensitive fluorescent dye, FLIPR or FDSS, icilin challenge)
- Assay type: cell-based
- conditionInfo: 0.2 μM compound; HEK293 cells stably expressing canine TRPM8; icilin challenge
quantity: inhibition at 0.2 µM (%)

Cc1c(N(CCCCC(F)(F)F)S(=O)(=O)CCN(CC(C)C)CC(C)C)sc2ccccc12 [Cpd 78]: 100
Cc1c(N(Cc2ccc(OC(F)(F)F)cc2)S(=O)(=O)CCN2CCC(CO)CC2)sc2ccccc12 [Cpd 23]: 97
Cc1c(N(Cc2ccc(F)c(C(F)(F)F)c2)S(=O)(=O)CCN2CCCC(F)(F)C2)sc2ccccc12 [Cpd 70]: 100
Cc1c(N(Cc2ccc(OC(F)(F)F)cc2)S(=O)(=O)CCN2CCS(=O)(=O)CC2)sc2ccccc12 [Cpd 35]: 97
Cc1c(N(Cc2ccc(OC(F)(F)F)cc2)S(=O)(=O)CCN2CCOCC2)sc2ccccc12 [Cpd 32]: 99
CCCN(CCS(=O)(=O)N(CCC1CC1)c1sc2ccccc2c1C)CC(C)C [Cpd 95]: 103
CC(=O)N1CCN(CCS(=O)(=O)N(Cc2ccc(OC(F)(F)F)cc2)c2sc3ccccc3c2C)CC1 [Cpd 29]: 101
CC(=O)N1CCN(CCS(=O)(=O)N(Cc2ccc(OC(F)(F)F)cc2)c2sc3ccccc3c2Br)CC1 [Cpd 65]: 101
Cc1c(N(Cc2ccc(OC(F)(F)F)cc2)S(=O)(=O)CCN2CCC[C@H]2C(F)(F)F)sc2ccccc12 [Cpd 71]: 100
Cc1c(N(Cc2ccc(OC(F)(F)F)cc2)S(=O)(=O)CCN2CCSCC2)sc2ccccc12 [Cpd 34]: 100
Cc1c(N(Cc2ccc(OC(F)(F)F)cc2)S(=O)(=O)CCN2CCC(C(F)(F)F)CC2)sc2ccccc12 [Cpd 44]: 99
